Assay: Phase I dose escalation trial: pharmacokinetic profile
Format: in vivo, human
Conditions: human, plasma, oral, 400 mg, Total Daily Dose 400 (mg), bid q4h, patient plasma; read-out: AUC0-24
Text: Pharmacokinetics profile with oral bid dosing was also studied. The plasma concentration of the drug reached several folds over the efficacious concentration (in vitro IC50) as illustrated in Table 8. […]
endpoint: AUC(0-t)

What does the record list as AUC(0-t) for CC(=O)c1cc2c(o1)C(=O)c1ccccc1C2=O [Compound 1, 2-acetylnaphtho[2,3-b]furan-4,9-dione] ? 40.2 µM·h

====

experiment: Phase 1 extension study of higher strength capsule (DP2A): pharmacokinetics; type: in vivo; conditions: human, plasma, oral, 500 mg, Patient 0053, single 500 mg dose - fed
endpoint: Cmax

Look at this compound and give its reported Cmax. CC(=O)c1cc2c(o1)C(=O)c1ccccc1C2=O [Compound 1, 2-acetylnaphtho[2,3-b]furan-4,9-dione] 6.61 µM
